- assay-name: Growth inhibition of human A375-C5 cells after 48 hrs by SRB assay
- Assay type: functional
- study-conditions: A375-C5, 48 h
property-label: GI50
Your reply should be a number followed by the unit it is expressed in.

Give the measured GI50 of "COc1cccc2c1C(=O)c1c(O)c3c(c(O)c1C2=O)C[C@@](O)(C(=O)CO)C[C@@H]3O[C@H]1C[C@H](N)[C@H](O)[C@H](C)O1" .
0.0915 µM

Give the measured GI50 of CCCc1c(O)ccc2c1OC(c1cc(OC)c(OC)cc1OC)CC2=O (stereo unspecified) .
32 µM

Give the measured GI50 of "CCCc1c(O)ccc(C(=O)/C=C/c2ccc(OC)cc2)c1O" .
46.3 µM

Give the measured GI50 of "O=C(/C=C/c1ccc(F)cc1)c1ccc(O)cc1O" .
14.1 µM

Give the measured GI50 of "CCCc1c(O)ccc(C(=O)/C=C/c2ccc(OCOC)cc2OCOC)c1O" .
35 µM

Give the measured GI50 of "COc1ccc(/C=C/C(=O)c2ccc(O)cc2O)c(OC)c1" .
30.3 µM

Value source: ChEMBL document CHEMBL1926612
